Recorded values, source patent US12384789B2.

Tested on: Endogenous Huntingtin Protein
ASSAY_NAME: Endogenous Huntingtin Protein Assay (Meso Scale Discovery ELISA-based electrochemiluminescence)
Type: cell-based
EXPERIMENTAL_CONDITIONS: MSD electrochemiluminescence, Table 1
VALUE_KIND: IC50

Cc1cn2cc(-c3cc(F)c4cc(C5CCNCC5)nnc4c3)cc(F)c2n1: ≤ 100 nM
Cn1cc2cc(-c3ccc4cc(C5CCNCC5)cc(F)c4n3)cc(F)c2n1: ≤ 100 nM
Cc1nc2c(C)cc(-c3cc(F)c4cc(C5CCNCC5)nnc4c3)nc2s1: ≤ 100 nM

Batch of 3 compounds: report IC50 for each.
1. Cc1cc(-c2cc(F)c3nc(C4CCNCC4)nnc3c2)nc2cn(C)nc12
2. Cc1cn2cc(-c3cc4c(F)cc(C5=CCNCC5)cc4nn3)cc(C)c2n1
3. Cn1cc2cc(-c3cc4ccc(C5=CCNCC5)cc4nn3)ccc2n1

A)
1. ≤ 100 nM
2. ≤ 100 nM
3. 500 to 1000 nM

###

Tested on: Endogenous Huntingtin Protein
ASSAY_NAME: Endogenous Huntingtin Protein Assay (Meso Scale Discovery ELISA-based electrochemiluminescence)
Type: cell-based
EXPERIMENTAL_CONDITIONS: MSD electrochemiluminescence, Table 1
VALUE_KIND: IC50

Consider the reported IC50 for these compounds:
COCCNc1cc(-c2cc(F)c3nc(C4CCNCC4)ccc3c2)nn2cc(C)nc12: 100 to 500 nM
CCN1CCC(c2cc3c(F)cc(-c4cc(F)c5nc(C)cn5c4)cc3nn2)CC1: ≤ 100 nM
Cn1cc2cc(-c3cc(F)c4nc(C5CCNCC5)ncc4c3)cc(C#N)c2n1: ≤ 100 nM
Cn1cc2cc(-c3ccc4cc(N5CCNCC5)ccc4n3)ccc2n1: 1000 to 3000 nM
CCN1[C@H](C)CC(c2cc3c(F)cc(-c4cc(C)c5nc(C)cn5n4)cc3nn2)C[C@H]1C (stereo partly shown): ≤ 100 nM

Batch of 6 compounds: report IC50 for each.
1. Cc1cc(-c2cc3c(F)cc([C@@]4(O)CCNC[C@@H]4O)cc3nn2)cc2cn(C)nc12
2. Cc1nc2c(C)cc(-c3cc(F)c4cc(C5CCNCC5)nnc4c3)nc2o1
3. CCN1CCC(c2cc(F)c3nc(-c4cc(F)c5nn(C)cc5c4)ncc3c2)CC1
4. Cn1cc2cc(-c3ncc4cc(C5CCNCC5)ccc4n3)ccc2n1
5. Cc1cc(-c2cc(F)c3cc(C4CCNCC4)nnc3c2)nc2cn(C)nc12
6. Cc1nc2c(F)cc(-c3cc(F)c4nc(C5CCNCC5)nnc4c3)cc2o1

A)
500 to 1000 nM
≤ 100 nM
≤ 100 nM
100 to 500 nM
≤ 100 nM
≤ 100 nM

Batch of 8 compounds: report IC50 for each.
1. Cc1cn2nc(-c3cc(F)c4cc(C5CCNCC5)nnc4c3)cc(OCCCn3cnc4ccccc43)c2n1
2. CCN1CCC(c2cc3c(F)cc(-c4cc(OC)c5nn(C)cc5n4)cc3nn2)CC1
3. Cc1cn2nc(-c3cc(F)c4nc(C5CCN(C)CC5)nnc4c3)cc(C)c2n1
4. Cc1cn2nc(-c3cc(F)c4cc(N5CCC(C)(N(C)C)CC5)nnc4c3)cc(C)c2n1
5. CCN1CCC(c2cc3c(F)cc(-c4cc(C)c5nc(C)cn5n4)cc3nn2)CC1
6. CCN1CC=C(c2cc(F)c3cc(-c4cc(F)c5nn(C)cc5c4)nnc3c2)CC1
7. COc1cc(-c2nnc3cc(C4CCNCC4)ccc3n2)cc2cn(C)nc12
8. Cc1nc2ccc(-c3cc(F)c4cc(C5CCNCC5)nnc4c3)cn2n1

A)
["≤ 100 nM", "≤ 100 nM", "≤ 100 nM", "≤ 100 nM", "≤ 100 nM", "≤ 100 nM", "≤ 100 nM", "100 to 500 nM"]

Batch of 6 compounds: report IC50 for each.
1. Cn1cc2cc(-c3nnc4cc(C5CCNCC5)ccc4n3)cc(F)c2n1
2. CCN1CCC(c2cc3c(F)cc(-c4ccc5nc(C)cn5n4)cc3nn2)CC1
3. Cn1cc2cc(-c3cc(F)c4nc(C5CCNCC5)nnc4c3)cc(F)c2n1
4. Cc1cn2nc(-c3cc(F)c4cc(C5CCN(CCO)CC5)nnc4c3)cc(C)c2n1
5. CCN1CCC(c2cc3c(F)cc(-c4cc(OC)c5nc(C)cn5n4)cc3nn2)CC1
6. CCN1CCC(c2cc3c(F)cc(-c4cc(C)c5nc(C)sc5c4)cc3nn2)CC1

A)
≤ 100 nM
≤ 100 nM
≤ 100 nM
≤ 100 nM
≤ 100 nM
1000 to 3000 nM

Batch of 4 compounds: report IC50 for each.
1. Cn1nc2cc(-c3cc4c(F)cc(C5=CCNCC5)cc4nn3)cc(F)c2n1
2. CCN1[C@H](C)CC(c2cc3c(F)cc(-c4cc(C)c5nc(C)cn5n4)cc3nn2)C[C@@H]1C (stereo partly shown)
3. Cc1cn2cc(-c3nnc4cc(C5CCNCC5)ccc4n3)cc(F)c2n1
4. Cc1cc(-c2cc(F)c3cc(C4CCNCC4)nnc3c2)cc2cn(C)nc12

A)
1: ≤ 100 nM; 2: 100 to 500 nM; 3: ≤ 100 nM; 4: ≤ 100 nM

Batch of 2 compounds: report IC50 for each.
1. Cc1cn2nc(-c3cc(F)c4cc(C5CCN(CCF)CC5)nnc4c3)cc(CO)c2n1
2. CCN1CCC(c2cc3c(F)cc(-c4cc(C(C)C)c5nc(C)cn5n4)cc3nn2)CC1

A)
1. ≤ 100 nM
2. 100 to 500 nM

Batch of 3 compounds: report IC50 for each.
1. CCN1CCC(c2cc3c(F)cc(-c4nc5cc(C)nc(C)c5s4)cc3nn2)CC1
2. Cc1cn2nc(-c3cc(F)c4cc(C5C[C@@H](C)N(CCF)[C@@H](C)C5)nnc4c3)cc(C)c2n1 (stereo partly shown)
3. Cc1cn2cc(-c3nnc4cc(C5CCNCC5)ccc4n3)cc(C)c2n1

A)
["≤ 100 nM", "100 to 500 nM", "100 to 500 nM"]
